Where do these numbers come from? They come from patent US6800656B2.

test system: human cytomegalovirus (HCMV); assay: microbe, parasite or virus in culture; type: cell-based; conditions: Human betaherpesvirus 5, HFF
Below: a set of entries, each annotated with reported EC50.
MEASUREMENT TYPE: EC50 (µM)

[
  {
    "COMPOUND": "CCCC(Cc1ccccc1)Nc1ccc2oc3ccccc3c2c1 (centres unmarked) [Example 65, (1-Benzyl-butyl)-dibenzofuran-2-yl-amine]",
    "MEASUREMENT TYPE": "EC50",
    "OBSERVED VALUE": 3
  },
  {
    "COMPOUND": "Nc1nc(O)c2ncn(COC(CO)CO)c2n1 [Ganciclovir]",
    "MEASUREMENT TYPE": "EC50",
    "OBSERVED VALUE": 2.6
  },
  {
    "COMPOUND": "FC(F)(F)c1ccc(CNc2ccc3oc4ccccc4c3c2)cc1 [Example 57]",
    "MEASUREMENT TYPE": "EC50",
    "OBSERVED VALUE": 1.7
  },
  {
    "COMPOUND": "O=[N+]([O-])c1ccc(CNc2ccc3oc4ccccc4c3c2)cc1 [Example 60, Dibenzofuran-2-yl-(4-nitro-benzyl)-amine]",
    "MEASUREMENT TYPE": "EC50",
    "OBSERVED VALUE": 1.3
  },
  {
    "COMPOUND": "CSc1ccc(CNc2ccc3oc4ccccc4c3c2)cc1 [Example 61]",
    "MEASUREMENT TYPE": "EC50",
    "OBSERVED VALUE": 2.9
  }
]

* * *

[
  {
    "COMPOUND": "COc1cc(CNc2ccc3oc4ccccc4c3c2)cc(OC)c1",
    "melting point": "87 to 88 °C"
  },
  {
    "COMPOUND": "Cc1ccccc1CNc1ccc2oc3ccccc3c2c1",
    "melting point": "84 to 85 °C"
  },
  {
    "COMPOUND": "CC(Nc1ccc2oc3ccccc3c2c1)c1ccccc1 (centres unmarked)",
    "melting point": "94 to 95 °C"
  },
  {
    "COMPOUND": "c1ccc(Oc2cccc(CNc3ccc4oc5ccccc5c4c3)c2)cc1",
    "melting point": "93 to 94 °C"
  },
  {
    "COMPOUND": "c1ccc(CNc2ccc3oc4ccccc4c3c2)cc1",
    "melting point": "81 to 82 °C"
  },
  {
    "COMPOUND": "Oc1ccccc1CNc1ccc2oc3ccccc3c2c1",
    "melting point": "145 to 147 °C"
  },
  {
    "COMPOUND": "CSc1ccc(CNc2ccc3oc4ccccc4c3c2)cc1",
    "melting point": "103 to 104 °C"
  },
  {
    "COMPOUND": "c1ccc2c(c1)oc1ccc(NCc3ccc4c(c3)OCO4)cc12",
    "melting point": "85 to 86 °C"
  },
  {
    "COMPOUND": "c1ccc(Oc2ccc(CNc3ccc4oc5ccccc5c4c3)cc2)cc1",
    "melting point": "91 to 93 °C"
  },
  {
    "COMPOUND": "c1ccc2c(c1)CN(c1ccc3oc4ccccc4c3c1)C2",
    "melting point": "193 to 195 °C"
  },
  {
    "COMPOUND": "FC(F)(F)c1ccc(CNc2ccc3oc4ccccc4c3c2)cc1",
    "melting point": "89 to 90 °C"
  },
  {
    "COMPOUND": "FC(F)(F)Oc1ccc(CNc2ccc3oc4ccccc4c3c2)cc1",
    "melting point": "75 to 77 °C"
  },
  {
    "COMPOUND": "c1ccc2c(c1)oc1ccc(NCc3ccsc3)cc12",
    "melting point": "62 to 63 °C"
  },
  {
    "COMPOUND": "O=C1c2ccccc2C(=O)N1c1ccc2oc3ccccc3c2c1",
    "melting point": "217 to 218 °C"
  }
]

* * *

Below: a set of entries, each annotated with reported EC50.
test system: herpes simplex virus 1 (HSV); experiment: microbe, parasite or virus in culture; format: cell-based; details: Human alphaherpesvirus 1, Vero

[
  {
    "MOLECULE": "CCn1c2ccccc2c2cc(NCc3cccc(F)c3C)ccc21",
    "EC50 [nM]": 320
  },
  {
    "MOLECULE": "COc1cc(CNc2ccc3oc4ccccc4c3c2)cc(OC)c1",
    "EC50 [nM]": 700
  },
  {
    "MOLECULE": "O=[N+]([O-])c1ccc(CNc2ccc3oc4ccccc4c3c2)cc1",
    "EC50 [nM]": 500
  },
  {
    "MOLECULE": "FC(F)(F)c1ccc(CNc2ccc3oc4ccccc4c3c2)cc1",
    "EC50 [nM]": 810
  },
  {
    "MOLECULE": "c1cnc2c(c1)Oc1cc(NCc3cccc4ccccc34)ccc1S2",
    "EC50 [nM]": 1300
  },
  {
    "MOLECULE": "COc1ccc(CNc2cccc3c2oc2ccccc23)cc1",
    "EC50 [nM]": 850
  },
  {
    "MOLECULE": "COc1ccc(CNc2ccc3oc4ccc(Cl)cc4c3c2)cc1F",
    "EC50 [nM]": 400
  },
  {
    "MOLECULE": "Fc1ccc(CNc2ccc3c(c2)Oc2ccccc2S3)c(F)c1",
    "EC50 [nM]": 260
  }
]
